biological target: prothrombinase; experiment: prothrombinase assay with purified proteins; type: biochemical; details: presence of Factor Va; read-out: 50% inhibition of prothrombinase activity
No end group written: not given here.
Metric: IC50 (µM)
One number for each entry, in µM.

Provide the documented IC50 with prothrombinase as the system for KRNRTFVLNFIKIPV-NH2 [PC311-325]
8

====

target: Factor Xa (Homo sapiens); construct: purchased Enzyme Research Laboratories, Southbend, Ind; experiment: Factor Xa clotting activity in NHP without added APC (Factor Xa-1 Stage clotting assay); format: biochemical; details: NHP, 0.15 nM factor Xa, no added APC; read-out: 50% inhibition of Factor Xa clotting activity
Sequence (P00742 41-179 limits assumed): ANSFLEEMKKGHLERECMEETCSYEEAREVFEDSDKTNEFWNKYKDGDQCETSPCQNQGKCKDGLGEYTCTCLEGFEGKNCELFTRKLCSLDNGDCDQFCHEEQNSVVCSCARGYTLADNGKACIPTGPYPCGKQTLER
Sequence (P00742 235-488 limits assumed): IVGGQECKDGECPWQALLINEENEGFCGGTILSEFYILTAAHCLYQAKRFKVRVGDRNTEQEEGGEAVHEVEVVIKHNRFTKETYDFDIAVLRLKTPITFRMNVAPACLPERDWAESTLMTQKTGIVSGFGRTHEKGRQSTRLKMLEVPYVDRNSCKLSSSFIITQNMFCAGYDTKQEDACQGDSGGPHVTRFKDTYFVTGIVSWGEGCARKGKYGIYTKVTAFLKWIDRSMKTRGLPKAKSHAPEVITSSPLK
No end group written: not given here.
Metric: pIC50
Answers are plain numbers, as −log10 of the molar value.

I have this substance here, KRNRTFVLNFIKIPV-NH2 [PC311-325] , and I need its recorded pIC50.
5.15

====

molecular target: APC (Homo sapiens, UniProt P04070); experiment: APC-catalyzed inactivation of Factor Va, residual Va by prothrombinase assay; format: biochemical; parameters: Protein C consists of a 155 amino acid residue light chain and a 262 amino acid residue heavy chain; from tissue; Factor Va a gift (Tans and Rosing, Univ. of Limburg); settings: presence of phospholipid vesicles; read-out: half-maximal inhibition of the APC-catalyzed inactivation of Factor Va
Sequence (P12259 29-737 partner limits assumed): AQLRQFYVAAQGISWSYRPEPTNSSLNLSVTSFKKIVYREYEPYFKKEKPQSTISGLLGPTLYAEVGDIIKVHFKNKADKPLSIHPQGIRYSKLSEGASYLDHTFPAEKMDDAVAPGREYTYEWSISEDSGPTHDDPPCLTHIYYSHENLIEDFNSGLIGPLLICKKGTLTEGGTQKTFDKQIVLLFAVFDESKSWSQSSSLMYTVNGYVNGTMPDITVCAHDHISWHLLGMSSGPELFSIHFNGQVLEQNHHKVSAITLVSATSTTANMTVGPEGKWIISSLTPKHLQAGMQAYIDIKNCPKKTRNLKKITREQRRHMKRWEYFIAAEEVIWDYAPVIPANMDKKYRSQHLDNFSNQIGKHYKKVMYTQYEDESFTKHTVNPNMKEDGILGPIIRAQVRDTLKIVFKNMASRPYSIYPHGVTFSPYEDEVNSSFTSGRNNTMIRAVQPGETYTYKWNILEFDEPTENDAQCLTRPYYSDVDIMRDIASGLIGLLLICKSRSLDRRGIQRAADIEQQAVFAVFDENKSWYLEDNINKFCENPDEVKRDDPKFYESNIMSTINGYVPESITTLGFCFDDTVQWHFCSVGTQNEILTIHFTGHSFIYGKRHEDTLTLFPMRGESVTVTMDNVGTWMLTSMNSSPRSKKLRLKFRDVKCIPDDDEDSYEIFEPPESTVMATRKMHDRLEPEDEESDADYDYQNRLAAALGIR
Sequence (P12259 1574-2224 partner limits assumed): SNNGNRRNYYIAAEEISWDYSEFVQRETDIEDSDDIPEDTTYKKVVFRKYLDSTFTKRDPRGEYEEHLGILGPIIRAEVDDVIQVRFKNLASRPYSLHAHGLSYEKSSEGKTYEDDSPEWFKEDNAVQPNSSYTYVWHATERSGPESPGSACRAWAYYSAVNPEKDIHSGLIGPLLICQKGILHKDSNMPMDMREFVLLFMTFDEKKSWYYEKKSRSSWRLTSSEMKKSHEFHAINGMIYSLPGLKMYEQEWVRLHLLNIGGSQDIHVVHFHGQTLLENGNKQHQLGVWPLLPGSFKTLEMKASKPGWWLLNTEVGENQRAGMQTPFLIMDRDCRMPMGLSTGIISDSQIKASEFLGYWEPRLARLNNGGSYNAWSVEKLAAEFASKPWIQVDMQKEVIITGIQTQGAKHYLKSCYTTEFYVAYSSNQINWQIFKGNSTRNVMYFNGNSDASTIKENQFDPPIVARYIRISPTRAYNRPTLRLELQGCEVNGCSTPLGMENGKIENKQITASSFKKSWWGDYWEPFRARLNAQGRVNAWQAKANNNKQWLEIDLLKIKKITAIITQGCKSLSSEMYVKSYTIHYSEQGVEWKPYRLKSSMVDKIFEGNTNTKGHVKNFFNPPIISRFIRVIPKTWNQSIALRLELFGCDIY
Sequence (P04070 43-197 limits assumed): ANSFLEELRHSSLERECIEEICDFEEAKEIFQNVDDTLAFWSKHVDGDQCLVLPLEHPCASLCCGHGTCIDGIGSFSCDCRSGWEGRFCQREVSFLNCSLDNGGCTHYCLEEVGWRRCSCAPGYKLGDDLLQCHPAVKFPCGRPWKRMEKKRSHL
Sequence (P04070 212-450 limits assumed): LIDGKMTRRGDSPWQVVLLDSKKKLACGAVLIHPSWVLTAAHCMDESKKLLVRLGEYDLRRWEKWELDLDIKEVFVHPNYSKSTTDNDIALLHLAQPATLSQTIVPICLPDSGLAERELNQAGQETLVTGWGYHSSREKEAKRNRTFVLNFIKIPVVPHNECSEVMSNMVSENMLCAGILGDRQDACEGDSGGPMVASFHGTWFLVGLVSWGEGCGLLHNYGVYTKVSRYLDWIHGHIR
No end group written: not given here.
Metric: IC50 (µM)
Answers are plain numbers, in µM.

I have this substance here, KRNRTFVLNFIKIPV-NH2 [PC311-325] , and I need its recorded IC50.
6

====

target: tenase (Homo sapiens, UniProt P00740); construct: 30 μl of 3.5 nM factor IXaβ (Enzyme Research Labs) in BBS+OV; purchased Enzyme Research Labs (factor IXaβ, factor X); Armour Pharmaceutical, Chicago (Monoclate P); experiment: tenase assay (Factor Xa generation); assay type: biochemical; settings: absence of VIIIa; read-out: IC50 inhibition of tenase
Sequence (P00740 47-191): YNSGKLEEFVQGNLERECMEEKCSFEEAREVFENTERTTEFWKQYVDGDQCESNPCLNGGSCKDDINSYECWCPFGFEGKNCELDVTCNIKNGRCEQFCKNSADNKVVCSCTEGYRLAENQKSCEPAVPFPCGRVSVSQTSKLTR
Sequence (P00740 227-461): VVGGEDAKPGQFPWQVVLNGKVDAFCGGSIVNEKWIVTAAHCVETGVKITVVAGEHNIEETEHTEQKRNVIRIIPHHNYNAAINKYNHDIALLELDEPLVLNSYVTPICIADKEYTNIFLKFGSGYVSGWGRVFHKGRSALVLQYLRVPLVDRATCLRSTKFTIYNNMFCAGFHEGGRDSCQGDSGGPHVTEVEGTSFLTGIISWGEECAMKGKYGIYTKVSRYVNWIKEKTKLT
No end group written: not given here.
Kindly supply the reported IC50 values for the records listed here.

YGIYTKVSRYVNWIK-NH2 [IX395-409] :: 40 to 60 µM

I have this substance here, HKGRSALVLQYLRVPL-NH2 [IX315-330] , and I need its recorded IC50.
40 to 60 µM

====

Kindly supply the reported pIC50 values for the records listed here.
target: Factor IXa (Homo sapiens); test: Factor IXa-1 Stage clotting assay; format: biochemical
Sequence (P00740 47-191 limits assumed): as the sequence (P00740 47-191) above
Sequence (P00740 227-461 limits assumed): as the sequence (P00740 227-461) above
No end group written: not given here.
Answers are plain numbers, as −log10 of the molar value.

VTAFLKWIDRSMKTR-NH2 [X415-429] :: 4.52

Please state pIC50 for every substance in the list that follows.
1. HKGRSALVLQYLRVPL-NH2 [IX315-330]
2. LVLQYLRVPLVDRAT-NH2 [IX321-335]
3. YGIYTKVSRYVNWIK-NH2 [IX395-409]
4. KVSRYVNWIKEKTKL-NH2 [IX400-414]
5. ARKGKYGIYTKVTAF-NH2 [X404-418]

4.52
4.52
4.60
4.30
4.30

====

Biological target: tenase (Homo sapiens, UniProt P00740)
Construct: 30 μl of 3.5 nM factor IXaβ (Enzyme Research Labs) in BBS+OV; purchased Enzyme Research Labs (factor IXaβ, factor X); Armour Pharmaceutical, Chicago (Monoclate P)
Experiment: tenase assay (Factor Xa generation)
Format: biochemical
Details: presence of Factor VIIIa; read-out: IC50 inhibition of tenase
Protocol: The tenase assay was conducted both in the presence and absence of Factor VIIIa. The procedure for the tenase assay varied depending on this variable and is described hereafter. Peptides prepared in Example 1 were dissolved in water and then 1/2 into 50 mM Barbital, 200 mM NaCl, 0.2% NaN3, 2.5 mg/ml Ovalbumin (5 times recrystallized, salt free, from American Biorganics Inc., New York, pH=7.5). […]. […]
No end group written: not given here.
Kindly supply the reported IC50 values for the records listed here.

For orientation, consider the following solved cases.
HKGRSALVLQYLRVPL-NH2 [IX315-330] :: ~2 µM
KVSRYVNWIKEKTKL-NH2 [IX400-414] :: 100 to 140 µM

Please state IC50 for every substance in the list that follows.
1. VTAFLKWIDRSMKTR-NH2 [X415-429]
2. LVLQYLRVPLVDRAT-NH2 [IX321-335]
3. ARKGKYGIYTKVTAF-NH2 [X404-418]

1: ~45 µM; 2: 100 to 140 µM; 3: ~150 µM

I have this substance here, YGIYTKVSRYVNWIK-NH2 [IX395-409] , and I need its recorded IC50.
~6 µM
